Catalogue of Absolute IC50 readings, one per entry.
- ASSAY_SYSTEM: T1, 6xHis-tagged huPD-L1 (human, UniProt Q9NZQ7 19-238)
- T1 construct: also called human PD-L1 (RD Systems 9049-B7); extracellular domain of human PD-L1 fused to a His tag; not shown: 6xHis tag
- T1 sequence (Q9NZQ7 19-238): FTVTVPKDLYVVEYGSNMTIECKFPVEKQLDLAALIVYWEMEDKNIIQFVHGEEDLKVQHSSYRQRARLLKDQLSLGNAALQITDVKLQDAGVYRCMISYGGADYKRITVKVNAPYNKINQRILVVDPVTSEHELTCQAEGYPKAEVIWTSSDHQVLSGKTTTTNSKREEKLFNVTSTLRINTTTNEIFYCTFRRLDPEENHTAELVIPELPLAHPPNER
- PROTOCOL_DESCRIPTION: ELISA, plate-coated 6xHis huPD-L1, A450
MEASURED_QUANTITY: Absolute IC50 (µg/mL)

BINDER: 3B4 (antibody, V domains shown) VH: EVQLQESGPSLVKPSQTLSLTCSVTGDSITSGYWNWIRKFPGNKLESMGYISYTGSTYYNPSLKSRLSITRDTSKNQFYLQLNSVTTEDTATYYCASGLLWLAWFAYWGQGTLVTVSA VL: DIVMSQSPSSLAVSVGEKVTMSCKSSQSLLYSSNQKNSLAWYQQKPGQSPKLLIYWASTRESGVPDRFTGSGSGTDFTLTISSVRAEDLAVYYCQQYYGYPFTFGGGTKLEIK
MEASURED_QUANTITY: Absolute IC50
TEST_RESULT: 0.152

BINDER: 2M3 (antibody, V domains shown) VH: EVQLVESGGGFVQTGGSLRLSCAASGFNFRSYDMHWVRQVIGKGLEWVSGIGPGGDTYYPGSVKGRFTISRENAKNSLYLQMNSLRAGDTAVYYCAREQFEGHYFDYWGQGTLVTVSS VL: DIQMTQSPSSVSASVGDRVNITCRASQGISSWLAWYQQKPWKAPKLLIYTASSLQSGVPSRFSGSGSGTDFTLTISSLQPEDFATYYCQQANSFPITFGQGTRLEIK
MEASURED_QUANTITY: Absolute IC50
TEST_RESULT: 0.788

BINDER: 2M1 (antibody, V domains shown) VH: EVQLVESGGGLVKPGGSLRLSCAASGFTFSSYTMNWVRQAPGKGLEWVSSITSSTSYIYYADSVKGRFTISRDNAKNSLYLQMNSLRAEDTSVYYCVRDWSIAARGAWFDPWGQGTLVTVSS VL: DIQMTQSPSSVSASVGDRVTITCRASQGIGSWLAWYQQKPGKAPKFLIYAASSLQGGVPSRFSGSGSGTDFTLTISSLQPEDFATYYCQQANSFPLTFGGGTKVEIK
MEASURED_QUANTITY: Absolute IC50
TEST_RESULT: 0.428

BINDER: 3B6 (antibody, V domains shown) VH: EVKLVESGGGLVQPGGSLRLSCGTSGFTFSDFYVEWVRQPPGKRLEWIAASRNKVNDYTTEYSESVKGRFIVSRDTSQNILYLQMNALRAEDSAIYYCARNVPWDGWYFDVWGAGTAVTVSS VL: DIVMTQSQKFMSTSVGDRVSITCKASQNVRTAVAWFQQKPGQSPKALIYLASTRHTGVPDRFTGSGSGTDFTLTISNVQSEDLADYFCLQHWNYPRTFGGGTKLEIK
MEASURED_QUANTITY: Absolute IC50
TEST_RESULT: 0.33
